Origin of measurements: ChEMBL document CHEMBL5223117

Tested on: Staphylococcus aureus
test_description: Antibacterial activity against methicillin resistant Staphylococcus aureus ATCC 43300
Type: functional
The source made the active and inactive calls. The rule behind the calls is not given here.
experimental_endpoint: MIC

* CNC(=O)c1cc(Oc2ccc(NC(=O)Nc3cc(C(F)(F)F)ccc3Cl)cc2)ccn1 | inactive
* O=C(Nc1ccc(F)cc1)Nc1ccc(Cl)c(C(F)(F)F)c1 | 12 µM
* O=C(Nc1ccc(OC(F)(F)F)cc1)N1CCN(c2ccc(Cl)c(C(F)(F)F)c2)C1=O | inactive
* O=C(Nc1ccc(Cl)c(C(F)(F)F)c1)Nc1ccc(Cl)c(C(F)(F)F)c1 | 1.2 µM
* O=C(Nc1ccc2c(c1)OCO2)Nc1ccc(Cl)c(C(F)(F)F)c1 | 357 µM
* C[C@H]1COc2c(N3CCN(C)CC3)c(F)cc3c(=O)c(C(=O)O)cn1c23 | 1.38 µM

Given the entry O=C(Nc1ccc(Cl)c(C(F)(F)F)c1)Nc1cc(F)c(F)cc1Cl , report its measured MIC.
1.3 µM

What does the record list as MIC for O=C(Nc1ccc(C(F)(F)F)cc1)Nc1ccc(Cl)c(C(F)(F)F)c1 ?
20.9 µM

Bench note: what MIC did O=C(Nc1ccc(OC(F)(F)F)cc1)Nc1ccc(Cl)c(C(F)(F)F)c1 show?
0.63 µM

Recorded MIC of O=C(Nc1ccc(Cl)c(C(F)(F)F)c1)Nc1cc(Cl)c(F)cc1F , please.
2.6 µM

Data request, read-out MIC, for O=C(Nc1ccc2c(c1)OC(F)(F)O2)Nc1ccc(Cl)c(C(F)(F)F)c1
0.63 µM

// lookup MIC for CN(C(=O)Nc1cccc(Cl)c1F)c1ccc(Cl)c(C(F)(F)F)c1
inactive

Entry CNC(=O)c1cc(Oc2ccc(NC(=O)N3CCN(c4ccc(Cl)c(C(F)(F)F)c4)C3=O)cc2)ccn1 : reported MIC = ?
inactive

I have this compound here, O=C(Nc1ccc(Cl)c(C(F)(F)F)c1)Nc1cc(F)c(F)c(F)c1F , and I need its recorded MIC.
0.31 µM

---

Tested on: Staphylococcus aureus
test_description: Antibacterial activity against vancomycin intermediate and methicillin resistant Staphylococcus aureus ATCC 700698
Type: functional
Active and inactive are the calls of the source. The calls are words filed in the database; no cut-off is given here.
experimental_endpoint: MIC

// below: answered molecules
• CNC(=O)c1cc(Oc2ccc(NC(=O)N3CCN(c4ccc(Cl)c(C(F)(F)F)c4)C3=O)cc2)ccn1 = inactive
• C[C@H]1COc2c(N3CCN(C)CC3)c(F)cc3c(=O)c(C(=O)O)cn1c23 = 22.1 µM
• CNC(=O)c1cc(Oc2ccc(N3CCN(c4ccc(Cl)c(C(F)(F)F)c4)C3=O)cc2)ccn1 = inactive
• CNC(=O)c1cc(Oc2ccc(NC(=O)Nc3cc(C(F)(F)F)ccc3Cl)cc2)ccn1 = inactive
• O=C(Nc1ccc2c(c1)OC(F)(F)O2)Nc1ccc(Cl)c(C(F)(F)F)c1 = 0.63 µM

Which MIC is listed for O=C(Nc1ccc(Cl)c(C(F)(F)F)c1)Nc1cc(F)c(F)cc1Cl ?
1.3 µM

Need MIC, item O=C(Nc1ccc(F)cc1)Nc1ccc(Cl)c(C(F)(F)F)c1
12 µM

May I ask what MIC has been recorded for CNC(=O)c1cc(Oc2ccc(NC(=O)Nc3cc(C(F)(F)F)ccc3OC)cc2)ccn1 ?
inactive

Can you look up the measured MIC of COc1ccc(NC(=O)Nc2ccc(Cl)c(C(F)(F)F)c2)cc1 for me?
inactive

Bench note: what MIC did O=C(Nc1ccc(OC(F)F)cc1)Nc1ccc(Cl)c(C(F)(F)F)c1 show?
1.31 µM
